- Target Desc: human EP4 receptor (Homo sapiens)
- Construct: expressed in transfected cells; host or cells: CHO cells infected with recombinant Semliki Forest Virus (SFV-1) particles; membranes prepared
- Sequence (P35408 whole entry): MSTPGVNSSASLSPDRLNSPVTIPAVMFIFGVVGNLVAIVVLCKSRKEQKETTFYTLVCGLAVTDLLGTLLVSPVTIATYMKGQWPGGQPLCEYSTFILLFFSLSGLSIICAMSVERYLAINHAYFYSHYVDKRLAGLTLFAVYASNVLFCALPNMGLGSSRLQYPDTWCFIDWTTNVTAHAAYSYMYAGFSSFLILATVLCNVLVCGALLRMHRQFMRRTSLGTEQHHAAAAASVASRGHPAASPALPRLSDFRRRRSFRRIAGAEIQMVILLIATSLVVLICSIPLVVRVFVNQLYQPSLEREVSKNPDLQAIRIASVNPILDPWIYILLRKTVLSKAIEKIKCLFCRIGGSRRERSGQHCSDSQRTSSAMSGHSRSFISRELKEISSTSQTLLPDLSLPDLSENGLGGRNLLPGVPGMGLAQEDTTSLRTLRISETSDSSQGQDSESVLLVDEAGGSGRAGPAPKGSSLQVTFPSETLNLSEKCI
- Run Description: Human EP4 Scintillation Proximity Assay (radioligand binding)
pKi: −log10 of the molar value.

- Molecule: "CCOc1c2c(c(OCC)c3ccccc13)C(=O)N(c1ccc(CC(=O)O)cc1)C2=O [Example 12]"
  pKi: "≥ 6.00"
- Molecule: "CCCOc1c2c(c(OCCC)c3ccccc13)C(=O)N(c1ccc(CC(=O)O)cc1)C2 [Example 5]"
  pKi: "≥ 6.00"
- Molecule: "CC(C)Oc1c2c(c(OC(C)C)c3ccccc13)C(=O)N(c1ccc(CC(=O)O)cc1)C2 [Example 4]"
  pKi: "≥ 6.00"
